target: DNA (cytosine-5)-methyltransferase 1 (Homo sapiens); experiment: Inhibition of human C-terminal domain DNMT1 catalytic domain (351 to 1600 residues) expressed in Escherichia coli BL21-CodonPlus (DE3)-RIL cells assessed as inhibition of methylated dI-dC formation using poly dI-dC and 12 uM [Me-3H]SAM as substrate incubated for 2 hrs by liquid scintillation counting analysis
Sequence (P26358 whole entry, the tested form may be a part): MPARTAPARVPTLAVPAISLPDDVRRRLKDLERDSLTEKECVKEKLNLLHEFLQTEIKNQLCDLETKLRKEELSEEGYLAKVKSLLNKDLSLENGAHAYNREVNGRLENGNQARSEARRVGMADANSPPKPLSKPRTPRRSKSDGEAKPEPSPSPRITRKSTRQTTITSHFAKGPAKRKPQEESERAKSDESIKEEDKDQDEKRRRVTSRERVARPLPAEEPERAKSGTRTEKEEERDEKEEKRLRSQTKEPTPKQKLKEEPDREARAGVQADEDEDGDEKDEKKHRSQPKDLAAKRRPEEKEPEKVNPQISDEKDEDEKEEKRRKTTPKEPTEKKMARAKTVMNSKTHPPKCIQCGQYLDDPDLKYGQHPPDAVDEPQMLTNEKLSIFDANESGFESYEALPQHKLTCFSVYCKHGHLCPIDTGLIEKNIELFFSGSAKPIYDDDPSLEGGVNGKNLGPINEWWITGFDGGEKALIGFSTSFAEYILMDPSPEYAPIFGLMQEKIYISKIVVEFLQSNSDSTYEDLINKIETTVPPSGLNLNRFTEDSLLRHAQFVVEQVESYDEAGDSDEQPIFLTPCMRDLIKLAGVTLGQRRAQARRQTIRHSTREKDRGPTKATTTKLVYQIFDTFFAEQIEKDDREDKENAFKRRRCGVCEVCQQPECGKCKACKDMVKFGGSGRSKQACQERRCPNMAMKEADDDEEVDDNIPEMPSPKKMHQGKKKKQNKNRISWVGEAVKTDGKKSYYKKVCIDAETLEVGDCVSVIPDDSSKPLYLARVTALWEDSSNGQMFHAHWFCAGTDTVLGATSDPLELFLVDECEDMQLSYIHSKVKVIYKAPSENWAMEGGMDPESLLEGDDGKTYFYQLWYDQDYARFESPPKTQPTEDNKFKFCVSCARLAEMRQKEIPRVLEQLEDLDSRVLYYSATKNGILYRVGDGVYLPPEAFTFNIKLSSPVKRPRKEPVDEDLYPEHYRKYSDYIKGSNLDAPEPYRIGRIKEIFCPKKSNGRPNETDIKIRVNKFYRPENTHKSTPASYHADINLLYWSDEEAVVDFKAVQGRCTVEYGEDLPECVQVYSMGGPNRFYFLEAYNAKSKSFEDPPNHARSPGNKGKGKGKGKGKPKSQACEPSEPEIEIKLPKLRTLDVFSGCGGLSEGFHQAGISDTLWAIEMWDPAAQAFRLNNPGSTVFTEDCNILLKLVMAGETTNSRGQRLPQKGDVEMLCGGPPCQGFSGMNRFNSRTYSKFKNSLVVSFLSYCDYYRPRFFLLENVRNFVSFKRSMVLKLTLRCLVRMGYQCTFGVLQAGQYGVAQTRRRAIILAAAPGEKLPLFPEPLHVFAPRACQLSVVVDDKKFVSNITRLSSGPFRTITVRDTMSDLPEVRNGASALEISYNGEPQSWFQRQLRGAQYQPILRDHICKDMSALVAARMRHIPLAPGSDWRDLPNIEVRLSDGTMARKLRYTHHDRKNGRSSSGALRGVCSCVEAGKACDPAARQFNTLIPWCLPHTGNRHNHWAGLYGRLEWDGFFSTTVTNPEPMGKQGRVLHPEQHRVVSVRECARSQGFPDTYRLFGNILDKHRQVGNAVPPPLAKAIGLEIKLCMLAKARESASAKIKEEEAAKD
RECORDED METRIC: pIC50
// field semantics: pIC50 = negative decimal log of concentration (mol/L)

// query Entry Nc1nc(=O)n([C@H]2C[C@H](O)[C@@H](CO)O2)cc1CNCC(CC[C@H](N)C(=O)O)C[C@H]1O[C@@H](n2cnc3c(N)ncnc32)[C@H](O)[C@@H]1O (stereo partly specified) has what pIC50?
// result 5.06

Reference source for all entries: ChEMBL document CHEMBL5137006
